// data source = ChEMBL document CHEMBL5528028

# Test system: Staphylococcus aureus
# TEST DETAILS: Antibacterial activity against Staphylococcus aureus assessed growth inhibition by micro broth dilution method
# Type: functional

{"columns": ["COMPOUND", "MIC (µg/mL)"],
 "data": [
  ["CCCn1cc(C(=O)OCC)c(=O)c2cc(F)c([C-](C#N)C(=O)OCC)cc21.[Na+] (centres undefined)", 128],
  ["CCOC(=O)c1cn2c3c(c([C-](C#N)C(=O)OCC)c(F)cc3c1=O)OC[C@@H]2C.[Na+] (some centres undefined)", 256],
  ["CCCCn1cc(C(=O)OCC)c(=O)c2cc(F)c(F)cc21", 32],
  ["CCOC(=O)c1cn(Cc2ccc([N+](=O)[O-])cc2)c2cc(C(C#N)C(=O)OCC)c(F)cc2c1=O.[Na+] (centres undefined)", 128],
  ["C=CCn1cc(C(=O)OCC)c(=O)c2cc(F)c(F)cc21", 128],
  ["CCOC(=O)c1cn(Cc2ccc(Cl)cc2)c2cc([C-](C#N)C(=O)OCC)c(F)cc2c1=O.[Na+] (centres undefined)", 64],
  ["CCCCn1cc(C(=O)OCC)c(=O)c2cc(F)c([C-](C#N)C(=O)OCC)cc21.[Na+] (centres undefined)", 64],
  ["CCOC(=O)c1cn(Cc2ccc(Cl)cc2)c2cc(F)c(F)cc2c1=O", 64],
  ["CCOC(=O)c1cn(Cc2ccc(Cl)cc2Cl)c2cc([C-](C#N)C(=O)OCC)c(F)cc2c1=O.[Na+] (centres undefined)", 32]
]}

----------
# System: Escherichia coli
# TEST DETAILS: Antibacterial activity against Escherichia coli ATCC 25922 assessed growth inhibition by micro broth dilution method
# Assay type: functional
Each record here notes measured log10 of MIC.
MEASURED METRIC: log10 of MIC (log10 of the value in µg/mL)

{"columns": ["MOLECULE", "log10 of MIC"],
 "data": [
  ["C=CCn1cc(C(=O)OCC)c(=O)c2cc(F)c(F)cc21", 1.81],
  ["CCOC(=O)c1cn(Cc2ccccc2)c2cc([C-](C#N)C(=O)OCC)c(F)cc2c1=O.[Na+] (stereo unspecified)", 0.30],
  ["CCOC(=O)c1cn(CC)c2cc(C(C#N)C(=O)OCC)c(F)cc2c1=O (stereo unspecified)", 1.20],
  ["CCOC(=O)c1cn(CC2CCCC2)c2cc(F)c(F)cc2c1=O", 2.11],
  ["CCOC(=O)c1cn(Cc2ccc(C)cc2)c2cc(F)c(F)cc2c1=O", 2.11],
  ["CCOC(=O)c1cn(Cc2ccc(F)cc2F)c2cc(C(C#N)C(=O)OCC)c(F)cc2c1=O (stereo unspecified)", 1.20],
  ["CCOC(=O)c1cn(CC)c2c(F)c(F)c(F)cc2c1=O", 1.81],
  ["CCOC(=O)c1cn(CC2CCC2)c2cc(F)c(F)cc2c1=O", 2.11],
  ["CCOC(=O)c1cn(Cc2ccc(Cl)cc2)c2cc(F)c(F)cc2c1=O", 2.11],
  ["CCOC(=O)c1cn(CC2CC2)c2cc(F)c(F)cc2c1=O", 1.81],
  ["CCCCCCCCn1cc(C(=O)O)c(=O)c2cc(F)c(C(C#N)C(=O)OCC)cc21 (stereo unspecified)", -0.30],
  ["CCOC(=O)c1cn(C2CC2)c2cc([C-](C#N)C(=O)OCC)c(F)cc2c1=O.[Na+] (stereo unspecified)", 1.51],
  ["CCOC(=O)c1cn(Cc2ccccc2Cl)c2cc(F)c(F)cc2c1=O", 2.11],
  ["CCOC(=O)c1cn(CC)c2cc([C-](C#N)C(=O)OCC)c(F)cc2c1=O.[Na+] (stereo unspecified)", 1.51],
  ["C=CCn1cc(C(=O)OCC)c(=O)c2cc(F)c([C-](C#N)C(=O)OCC)cc21.[Na+] (stereo unspecified)", 1.20],
  ["CCOC(=O)c1cn(CC(N)=O)c2cc([C-](C#N)C(=O)OCC)c(F)cc2c1=O.[Na+] (stereo unspecified)", 2.41],
  ["CCCCn1cc(C(=O)OCC)c(=O)c2cc(F)c(F)cc21", 2.11],
  ["CCOC(=O)C(C#N)c1c(F)cc2c(=O)c(C(=O)O)cn(CC)c2c1F (stereo unspecified)", 0.30],
  ["CCOC(=O)C(C#N)c1cc2c(cc1F)c(=O)c(C(=O)O)cn2C1CC1 (stereo unspecified)", -0.30],
  ["CCOC(=O)c1cn(CC)c2cc(F)c(F)cc2c1=O", 1.81],
  ["CCOC(=O)c1cn(CC=C(C)C)c2cc([C-](C#N)C(=O)OCC)c(F)cc2c1=O.[Na+] (stereo unspecified)", 0.90]
]}
